assay: Biodistribution studies in HEK-uPAR xenograft-bearing nude mice; conditions: female, CD1/nude (Crl:CD1-Foxn nu), mouse, HEK-uPAR xenograft, 0.5 nmol, total radioactivity, HEK-uPAR xgft, 24 h p.i.; 5 MBq, 0.5 nmol; decay-corrected; average ± SD, n=3 animals
Assignment: determine reported tissue uptake at 24 h for the given molecules.
Answers are plain numbers, in %ID/g.

{"molecule": "CC(C)C[C@H](NC(=O)[C@H](Cc1ccc(O)cc1)NC(=O)[C@@H](CCCNC(=N)N)NC(=O)[C@@H](CO)NC(=O)[C@H](Cc1ccccc1)NC(=O)[C@H](CC1CCCCC1)NC(=O)[C@H](CC(=O)O)NC(=O)CN1CCN(CC(=O)O)CCN(CC(=O)O)CCN(CC(=O)O)CC1)C(=O)N[C@@H](Cc1c[nH]c2ccccc12)C(=O)N[C@@H](CO)C(N)=O [[^177Lu]Lu-DOTA-AE105, metal not drawn, reference compound]", "unit spec": "%ID/g", "tissue uptake at 24 h": 0.4}

Req: Param item = CC(C)C[C@H](NC(=O)[C@H](Cc1ccc(O)cc1)NC(=O)[C@@H](CCCNC(=N)N)NC(=O)[C@@H](CO)NC(=O)[C@H](Cc1ccccc1)NC(=O)[C@H](CC1CCCCC1)NC(=O)[C@H](CC(=O)O)NC(=O)CCOCCOCCOCCOCCNC(=O)[C@H](CCCCNC(=O)CCCc1ccc(I)cc1)NC(=O)CN1CCN(CC(=O)O)CCN(CC(=O)O)CCN(CC(=O)O)CC1)C(=O)N[C@@H](Cc1c[nH]c2ccccc12)C(=O)N[C@@H](CO)C(N)=O [[^177Lu]Lu-uPAR-05, metal not drawn] ; retrieve measured tissue uptake at 24 h.
Resp: 3.1

---

assay: Biodistribution studies in HEK-uPAR xenograft-bearing nude mice; conditions: female, CD1/nude, mouse, intestines, 5 MBq (0.5 nmol), total radioactivity, 4 h p.i.; 5 MBq, 0.5 nmol; decay-corrected; average ± SD, n=3 animals
property measured: tissue uptake at 4 h (%ID/g)
One number for each entry, in %ID/g.

Worked set:
{"molecule": "CC(C)C[C@H](NC(=O)[C@H](Cc1ccc(O)cc1)NC(=O)[C@@H](CCCNC(=N)N)NC(=O)[C@@H](CO)NC(=O)[C@H](Cc1ccccc1)NC(=O)[C@H](CC1CCCCC1)NC(=O)[C@H](CC(=O)O)NC(=O)CCOCCOCCOCCOCCNC(=O)[C@H](CCCCNC(=O)CCCc1ccc(I)cc1)NC(=O)CN1CCN(CC(=O)O)CCN(CC(=O)O)CCN(CC(=O)O)CC1)C(=O)N[C@@H](Cc1c[nH]c2ccccc12)C(=O)N[C@@H](CO)C(N)=O [[^177Lu]Lu-uPAR-05, metal not drawn]", "property measured": "tissue uptake at 4 h", "reported value": 1.6}
{"molecule": "CC(C)C[C@H](NC(=O)[C@H](Cc1ccc(O)cc1)NC(=O)[C@@H](CCCNC(=N)N)NC(=O)[C@@H](CO)NC(=O)[C@H](Cc1ccccc1)NC(=O)[C@H](CC1CCCCC1)NC(=O)[C@H](CC(=O)O)NC(=O)[C@H](CCCCNC(=O)CCCc1ccc(I)cc1)NC(=O)CN1CCN(CC(=O)O)CCN(CC(=O)O)CCN(CC(=O)O)CC1)C(=O)N[C@@H](Cc1c[nH]c2ccccc12)C(=O)N[C@@H](CO)C(N)=O [[^177Lu]Lu-uPAR-01, metal not drawn]", "property measured": "tissue uptake at 4 h", "reported value": 2.3}
{"molecule": "CC(C)C[C@H](NC(=O)[C@H](Cc1ccc(O)cc1)NC(=O)[C@@H](CCCNC(=N)N)NC(=O)[C@@H](CO)NC(=O)[C@H](Cc1ccccc1)NC(=O)[C@H](CC1CCCCC1)NC(=O)[C@H](CC(=O)O)NC(=O)[C@H](CCCCNC(=O)CCCc1ccc(I)cc1)NC(=O)[C@@H](N)CCCCNC(=O)CN1CCN(CC(=O)O)CCN(CC(=O)O)CCN(CC(=O)O)CC1)C(=O)N[C@@H](Cc1c[nH]c2ccccc12)C(=O)N[C@@H](CO)C(N)=O [[^177Lu]Lu-uPAR-04, metal not drawn]", "property measured": "tissue uptake at 4 h", "reported value": 1.6}

Next, consider the following molecule.
Req: For the molecule shown here, CC(C)C[C@H](NC(=O)[C@H](Cc1ccc(O)cc1)NC(=O)[C@@H](CCCNC(=N)N)NC(=O)[C@@H](CO)NC(=O)[C@H](Cc1ccccc1)NC(=O)[C@H](CC1CCCCC1)NC(=O)[C@H](CC(=O)O)NC(=O)CN1CCN(CC(=O)O)CCN(CC(=O)O)CCN(CC(=O)O)CC1)C(=O)N[C@@H](Cc1c[nH]c2ccccc12)C(=O)N[C@@H](CO)C(N)=O [[^177Lu]Lu-DOTA-AE105, metal not drawn, reference compound] , give the reported tissue uptake at 4 h.
Resp: 0.31

---

For each of the molecules below, state its tissue uptake at 24 h.
assay: in vivo; conditions: female, CD1/nude, mouse, 5 MBq (0.5 nmol), total radioactivity, Muscle
Show the value, then the unit it is measured in.

{"molecule": "CC(C)C[C@H](NC(=O)[C@H](Cc1ccc(O)cc1)NC(=O)[C@@H](CCCNC(=N)N)NC(=O)[C@@H](CO)NC(=O)[C@H](Cc1ccccc1)NC(=O)[C@H](CC1CCCCC1)NC(=O)[C@H](CC(=O)O)NC(=O)[C@H](CCCCNC(=O)CCOCCOCCOCCOCCNC(=O)CCCc1ccc(I)cc1)NC(=O)CN1CCN(CC(=O)O)CCN(CC(=O)O)CCN(CC(=O)O)CC1)C(=O)N[C@@H](Cc1c[nH]c2ccccc12)C(=O)N[C@@H](CO)C(N)=O [[^177Lu]Lu-uPAR-02, metal not drawn]", "tissue uptake at 24 h": "0.9 %ID/g"}

Req: // query tissue uptake at 24 h value for entry CC(C)C[C@H](NC(=O)[C@H](Cc1ccc(O)cc1)NC(=O)[C@@H](CCCNC(=N)N)NC(=O)[C@@H](CO)NC(=O)[C@H](Cc1ccccc1)NC(=O)[C@H](CC1CCCCC1)NC(=O)[C@H](CC(=O)O)NC(=O)[C@H](CCCCNC(=O)CCOCCOCCOCCOCCNC(=O)c1ccc(CNC(=O)CCCc2ccc(I)cc2)cc1)NC(=O)CN1CCN(CC(=O)O)CCN(CC(=O)O)CCN(CC(=O)O)CC1)C(=O)N[C@@H](Cc1c[nH]c2ccccc12)C(=O)N[C@@H](CO)C(N)=O [[^177Lu]Lu-uPAR-03, metal not drawn]
Resp: 1.5 %ID/g

---

test: Biodistribution studies in HEK-uPAR xenograft-bearing nude mice; settings: female, CD1/nude, mouse, HEK-uPAR xenograft, 5 MBq (0.5 nmol), total radioactivity, HEK-uPAR xgft, 24 h p.i.; 5 MBq, 0.5 nmol; decay-corrected; average ± SD, n=3 animals
Kindly state tissue uptake at 24 h for each of the entries shown.
One number for each entry, in %ID/g.

{"compound": "CC(C)C[C@H](NC(=O)[C@H](Cc1ccc(O)cc1)NC(=O)[C@@H](CCCNC(=N)N)NC(=O)[C@@H](CO)NC(=O)[C@H](Cc1ccccc1)NC(=O)[C@H](CC1CCCCC1)NC(=O)[C@H](CC(=O)O)NC(=O)[C@H](CCCCNC(=O)CCCc1ccc(I)cc1)NC(=O)CN1CCN(CC(=O)O)CCN(CC(=O)O)CCN(CC(=O)O)CC1)C(=O)N[C@@H](Cc1c[nH]c2ccccc12)C(=O)N[C@@H](CO)C(N)=O [[^177Lu]Lu-uPAR-01, metal not drawn]", "unit spec": "%ID/g", "tissue uptake at 24 h": 5.8}

Continue with the compound presented below.
Req: I'd like to know its tissue uptake at 24 h. The compound in question is CC(C)C[C@H](NC(=O)[C@H](Cc1ccc(O)cc1)NC(=O)[C@@H](CCCNC(=N)N)NC(=O)[C@@H](CO)NC(=O)[C@H](Cc1ccccc1)NC(=O)[C@H](CC1CCCCC1)NC(=O)[C@H](CC(=O)O)NC(=O)[C@H](CCCCNC(=O)CCCc1ccc(I)cc1)NC(=O)[C@@H](N)CCCCNC(=O)CN1CCN(CC(=O)O)CCN(CC(=O)O)CCN(CC(=O)O)CC1)C(=O)N[C@@H](Cc1c[nH]c2ccccc12)C(=O)N[C@@H](CO)C(N)=O [[^177Lu]Lu-uPAR-04, metal not drawn]
Resp: 4.3

---

Provide the recorded remaining at 4 h, 10 MBq/200 µL for the entries that follow.
experiment: in vitro; details: mouse, plasma

{"molecule": "CC(C)C[C@H](NC(=O)[C@H](Cc1ccc(O)cc1)NC(=O)[C@@H](CCCNC(=N)N)NC(=O)[C@@H](CO)NC(=O)[C@H](Cc1ccccc1)NC(=O)[C@H](CC1CCCCC1)NC(=O)[C@H](CC(=O)O)NC(=O)[C@H](CCCCNC(=O)CCOCCOCCOCCOCCNC(=O)CCCc1ccc(I)cc1)NC(=O)CN1CCN(CC(=O)O)CCN(CC(=O)O)CCN(CC(=O)O)CC1)C(=O)N[C@@H](Cc1c[nH]c2ccccc12)C(=O)N[C@@H](CO)C(N)=O [[^177Lu]Lu-uPAR-02, metal not drawn]", "remaining at 4 h, 10 MBq/200 µL": "98%"}

Req: Using the record for CC(C)C[C@H](NC(=O)[C@H](Cc1ccc(O)cc1)NC(=O)[C@@H](CCCNC(=N)N)NC(=O)[C@@H](CO)NC(=O)[C@H](Cc1ccccc1)NC(=O)[C@H](CC1CCCCC1)NC(=O)[C@H](CC(=O)O)NC(=O)[C@H](CCCCNC(=O)CCOCCOCCOCCOCCNC(=O)c1ccc(CNC(=O)CCCc2ccc(I)cc2)cc1)NC(=O)CN1CCN(CC(=O)O)CCN(CC(=O)O)CCN(CC(=O)O)CC1)C(=O)N[C@@H](Cc1c[nH]c2ccccc12)C(=O)N[C@@H](CO)C(N)=O [[^177Lu]Lu-uPAR-03, metal not drawn] , report its remaining at 4 h, 10 MBq/200 µL.
Resp: 99%
